Assay: in vitro
Settings: human
Endpoint: CC50 (µM)
Respond numerically; units are µM and should not be typed.

Ask | Indicate the recorded CC50 value for this molecule: CCN(CC)Cc1cc(Nc2ccnc3cc(Cl)ccc23)ccc1O
Reply | 79
